experiment: Half-life of the initial pseudo-first-order isomerization at apparent pH 1.0 and 37 degree celsius; type: ADME; settings: read-out: T1/2 app (converted)
QUANTITY MEASURED: half-life (min)
Write down the numeric answer in min and omit the unit.

Q. # query: half-life of entry O=C1NCCCN1[C@@H]1O[C@H](CO)[C@@H](O)[C@H]1O
A. 37.8

----------
assay: Half-life of the initial pseudo-first-order isomerization at apparent pH 2.8 and 37 degree celsius; type: ADME; details: read-out: T1/2 app (converted)
QUANTITY MEASURED: half-life (h)
Kindly provide the numeric value in h only, without the unit symbol.

Q. Please look up its half-life: O=C1NCCCN1[C@@H]1O[C@H](CO)[C@@H](O)[C@H]1O
A. 5.2
